Assay: soluble on expression in E. coli; label from the status in PepcDB or PDB records
REPORTED_PROPERTY: soluble on expression in E. coli

LFTPDKQRITESVAFKDLSSPELEQYIGDTQAEKLRADIELIDGVYQPFDKEEYLAGQLAPVFFGSALNNFGVQELLNCFVEIAPSPQPVAAVERKVDPHEEEFTGFVFKIHANMDPNHRSCIAFVKICSGRFERNTNYKHIRLGKQFRFSSPTAFMAQRKETVDEAYAGDIIGLPDTGNFQIGDTLTAGEELHFRGLPSFSPELFKYIENQDPMKAKQLAKGIDQLMGEGVAQLFTNQFNGRKIIGTVGQLQFEVIQYRLLHEYGAQCRWEPISLYKACWIDSDKPEALEAFKKRKAQYMAKDIAGRDVYLADSGYVLNMAQQDFPDIRFHFTSEF | not soluble
LSDDRYFIFFNQPKTPEESIQLLGAQAGDTESFRVTLDRIPPQIQKLSFTATLDGAGQMSQVAPGYLRIVAGGEEVARYSFTGSEFSTERAVMLGDFYLKDVWRFAAVGQGFDGGLDALLKNFGGEVAEEEPAVPAQTQSGAAPSFAPPAFGAPAAPAPAPAPAPQPAQGFTPPPGPTPPPAPAPAPSVHAAPTIVGPLHTPPGGTVPPPGPAPYAQ | not soluble

The origin of these recorded values is the DeepSol protein solubility set.
